Test system: Escherichia coli K12
Assay summary: MBC assay
Assay type: cell-based
Details: Escherichia coli; E. coli K12; read-out: MBC
Reported metric: MBC

Some entries whose results are on file:
{"Structure smiles": "CCCCCCCCCOc1cc(O)c2c(c1)O[C@H](c1ccc(O)cc1)CC2=O", "Tested on": "Escherichia coli K12", "MBC": "> 512 µg/mL"}
{"Structure smiles": "CCCCCCOc1ccc([C@@H]2CC(=O)c3c(O)cc(OCCCCCC)cc3O2)cc1", "Tested on": "Escherichia coli K12", "MBC": "> 512 µg/mL"}

Alright, here's another molecule for you.
INPUT: Any idea what its MBC is? The molecule is `CCCCCCCCOc1ccc([C@@H]2CC(=NO)c3c(O)cc(OCCCCCCCC)cc3O2)cc1`
OUTPUT: > 512 µg/mL

* * *

Assay summary: SRB assay, cytotoxicity
Type: cell-based, mouse
Details: mouse, 3T3-L1 cells; 3T3-L1, SRB, 24 h exposure, three independent repeats; read-out: Cytotoxicity (IC50 ± SD)
For each record, check the reported IC50 at 24 h: if it is below 8 µg/mL write y, else write n.

{"Compound": "CCCCCCCCOc1ccc([C@@H]2CC(=NO)c3c(O)cc(OCCCCCCCC)cc3O2)cc1 [B6, 7,4′-Di-O-octylnaringenin oxime]", "Class name": "n"}
{"Compound": "CCCCCCOc1ccc([C@@H]2CC(=O)c3c(O)cc(OCCCCCC)cc3O2)cc1 [A2, 7,4′-di-O-hexylnaringenin]", "Class name": "n"}
{"Compound": "CCCCCCCCCOc1cc(O)c2c(c1)O[C@H](c1ccc(O)cc1)CC2=O [A7, 7-O-Nonylnaringenin]", "Class name": "n"}
{"Compound": "CCCCCCCCOc1cc(O)c2c(c1)O[C@H](c1ccc(O)cc1)CC2=NO [B5, 7-O-Octylnaringenin oxime]", "Class name": "y"}
{"Compound": "CCCCCCCOc1cc(O)c2c(c1)O[C@H](c1ccc(O)cc1)CC2=O [A3, 7-O-Heptylnaringenin]", "Class name": "y"}
{"Compound": "CCCCCCCCCCCOc1cc(O)c2c(c1)O[C@H](c1ccc(O)cc1)CC2=O [A9, 7-O-Undecylnaringenin]", "Class name": "n"}
{"Compound": "CCCCCCCOc1ccc([C@@H]2CC(=O)c3c(O)cc(OCCCCCCC)cc3O2)cc1 [A4, 7,4′-Di-O-heptylnaringenin]", "Class name": "n"}
{"Compound": "CCCCCCCCCOc1ccc([C@@H]2CC(=NO)c3c(O)cc(OCCCCCCCCC)cc3O2)cc1 [B8, 7,4′-Di-O-nonylnaringenin oxime]", "Class name": "n"}

INPUT: Is it true that IC50 at 24 h reported for CCCCCCOc1cc(O)c2c(c1)O[C@H](c1ccc(O)cc1)CC2=O [A1, 7-O-hexylnaringenin] is less than 8 µg/mL?
OUTPUT: n

* * *

Reported metric: melting point

For orientation, consider the following solved cases.
{"Structure smiles": "CCCCCCCCCCCOc1ccc([C@@H]2CC(=NO)c3c(O)cc(OCCCCCCCCCCC)cc3O2)cc1", "melting point": "95 to 96 °C"}
{"Structure smiles": "CCCCCCCCOc1ccc([C@@H]2CC(=NO)c3c(O)cc(OCCCCCCCC)cc3O2)cc1", "melting point": "85 to 86 °C"}
{"Structure smiles": "CCCCCCCCCOc1ccc([C@@H]2CC(=O)c3c(O)cc(OCCCCCCCCC)cc3O2)cc1", "melting point": "70 to 71 °C"}
{"Structure smiles": "CCCCCCCCOc1cc(O)c2c(c1)O[C@H](c1ccc(O)cc1)CC2=O", "melting point": "111 to 113 °C"}
{"Structure smiles": "CCCCCCCCCCCOc1cc(O)c2c(c1)O[C@H](c1ccc(O)cc1)CC2=O", "melting point": "103 to 104 °C"}
{"Structure smiles": "CCCCCCCCCOc1cc(O)c2c(c1)O[C@H](c1ccc(O)cc1)CC2=O", "melting point": "115 to 116 °C"}
{"Structure smiles": "CCCCCCCCCOc1ccc([C@@H]2CC(=NO)c3c(O)cc(OCCCCCCCCC)cc3O2)cc1", "melting point": "87 to 88 °C"}
{"Structure smiles": "CCCCCCCOc1cc(O)c2c(c1)O[C@H](c1ccc(O)cc1)CC2=NO", "melting point": "186 to 187 °C"}
{"Structure smiles": "CCCCCCCOc1ccc([C@@H]2CC(=O)c3c(O)cc(OCCCCCCC)cc3O2)cc1", "melting point": "74 to 75 °C"}
{"Structure smiles": "CCCCCCCCCCCOc1cc(O)c2c(c1)O[C@H](c1ccc(O)cc1)CC2=NO", "melting point": "171 to 173 °C"}

INPUT: Given the entry `CCCCCCCCOc1ccc([C@@H]2CC(=O)c3c(O)cc(OCCCCCCCC)cc3O2)cc1` , report its measured melting point.
OUTPUT: 60 to 61 °C

INPUT: Form field: reported melting point of `CCCCCCCCOc1cc(O)c2c(c1)O[C@H](c1ccc(O)cc1)CC2=NO`
OUTPUT: 183 to 185 °C

* * *

Assay summary: SRB assay, cytotoxicity
Format: cell-based, human
Details: human, HT-29 cells; HT-29, SRB, 24 h exposure, three independent repeats; read-out: Cytotoxicity (IC50 ± SD)
Reported metric: IC50 at 24 h

Below, each entry is followed by its recorded IC50 at 24 h result.
{"Structure smiles": "CCCCCCOc1ccc([C@@H]2CC(=O)c3c(O)cc(OCCCCCC)cc3O2)cc1", "IC50 at 24 h": "> 100 µg/mL"}
{"Structure smiles": "CCCCCCCOc1ccc([C@@H]2CC(=O)c3c(O)cc(OCCCCCCC)cc3O2)cc1", "IC50 at 24 h": "> 100 µg/mL"}
{"Structure smiles": "CCCCCCCCOc1cc(O)c2c(c1)O[C@H](c1ccc(O)cc1)CC2=O", "IC50 at 24 h": "14.6 µg/mL"}
{"Structure smiles": "CCCCCCCCCOc1ccc([C@@H]2CC(=O)c3c(O)cc(OCCCCCCCCC)cc3O2)cc1", "IC50 at 24 h": "> 100 µg/mL"}
{"Structure smiles": "CCCCCCCCOc1ccc([C@@H]2CC(=O)c3c(O)cc(OCCCCCCCC)cc3O2)cc1", "IC50 at 24 h": "> 100 µg/mL"}

INPUT: Which IC50 at 24 h reading was recorded for the compound `CCCCCCCCOc1ccc([C@@H]2CC(=NO)c3c(O)cc(OCCCCCCCC)cc3O2)cc1` ?
OUTPUT: > 100 µg/mL

* * *

Assay summary: SRB assay, cytotoxicity
Format: cell-based, human
Details: human, HT-29 cells; HT-29, SRB, 24 h exposure, three independent repeats; read-out: Cytotoxicity (IC50 ± SD)
Procedure: The HT-29 cells (ATCC, Manassas, VA, USA) were cultured within α-MEM (IIET PAS, Wrocław, Poland) supplemented with 10% fetal bovine serum (Sigma, St. Louis, MO, USA), antimycotic (100 μg/mL penicillin, 100 μg/mL streptomycin and 0.25 μg/mL amphotericin) (Sigma) and 2 mM glutamine (Sigma). […] The sulforhodamine B (SRB) assay was performed according to a previously published protocol. […] The absorbance was measured at 560 nm using a GloMax Discover Microplate Reader (Promega, Madison, WI, USA).
IC50 at 24 h values for the molecules below.
Enter your answer as a number in µg/mL; do not include the unit.

Worked examples, 5 molecules total:
{"Structure smiles": "CCCCCCCCCOc1cc(O)c2c(c1)O[C@H](c1ccc(O)cc1)CC2=NO", "IC50 at 24 h (µg/mL)": 11.2}
{"Structure smiles": "CCCCCCOc1cc(O)c2c(c1)O[C@H](c1ccc(O)cc1)CC2=NO", "IC50 at 24 h (µg/mL)": 11.3}
{"Structure smiles": "CCCCCCCCCOc1cc(O)c2c(c1)O[C@H](c1ccc(O)cc1)CC2=O", "IC50 at 24 h (µg/mL)": 15}
{"Structure smiles": "CCCCCCCOc1cc(O)c2c(c1)O[C@H](c1ccc(O)cc1)CC2=NO", "IC50 at 24 h (µg/mL)": 11.3}
{"Structure smiles": "CCCCCCCOc1cc(O)c2c(c1)O[C@H](c1ccc(O)cc1)CC2=O", "IC50 at 24 h (µg/mL)": 14.2}

INPUT: Record request: IC50 at 24 h value, item `CCCCCCOc1cc(O)c2c(c1)O[C@H](c1ccc(O)cc1)CC2=O`
OUTPUT: 14.3

INPUT: Entry under review: `CCCCCCCCCCCOc1cc(O)c2c(c1)O[C@H](c1ccc(O)cc1)CC2=NO` . Reported IC50 at 24 h?
OUTPUT: 11.4

INPUT: Look up IC50 at 24 h for this molecule: `CCCCCCCCOc1cc(O)c2c(c1)O[C@H](c1ccc(O)cc1)CC2=NO`
OUTPUT: 9.96

INPUT: Returns the measured IC50 at 24 h for the input molecule. Input: `CCCCCCOc1ccc([C@@H]2CC(=NO)c3c(O)cc(OCCCCCC)cc3O2)cc1`
OUTPUT: 49.8

INPUT: Name the reported IC50 at 24 h value associated with the molecule `CCCCCCCCCCCOc1cc(O)c2c(c1)O[C@H](c1ccc(O)cc1)CC2=O`
OUTPUT: 17.9
